Values from patent US20160317649A1

# system-tested: HLA DRB1*0701 (human)
# conditions-used: modification not given
assay-metric: IC50 (nM)
The reply should be a number in nM, with the unit left off.

Query: Find the measured IC50 of AYQQGVTVDSIG [24.2] and report it.
Response: 2720
